# measurement.target: Sodium-dependent serotonin transporter (Rattus norvegicus)
# Sequence (P31652 whole entry): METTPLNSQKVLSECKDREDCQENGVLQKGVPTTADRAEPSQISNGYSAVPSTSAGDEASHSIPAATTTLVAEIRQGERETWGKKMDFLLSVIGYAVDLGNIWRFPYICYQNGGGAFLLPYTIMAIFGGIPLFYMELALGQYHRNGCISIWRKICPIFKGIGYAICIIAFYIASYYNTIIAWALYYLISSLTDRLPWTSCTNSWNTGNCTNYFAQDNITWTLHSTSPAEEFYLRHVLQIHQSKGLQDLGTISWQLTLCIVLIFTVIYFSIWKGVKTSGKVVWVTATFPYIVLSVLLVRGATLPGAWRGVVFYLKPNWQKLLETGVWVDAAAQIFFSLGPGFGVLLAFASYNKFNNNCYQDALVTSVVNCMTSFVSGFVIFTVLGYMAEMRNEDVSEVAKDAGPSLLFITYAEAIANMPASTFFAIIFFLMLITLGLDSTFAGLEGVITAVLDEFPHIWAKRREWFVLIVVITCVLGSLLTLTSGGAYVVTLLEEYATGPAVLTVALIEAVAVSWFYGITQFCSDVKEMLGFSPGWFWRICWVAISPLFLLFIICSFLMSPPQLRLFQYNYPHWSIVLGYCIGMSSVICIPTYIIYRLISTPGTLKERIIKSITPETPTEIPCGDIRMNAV
# protocol: Inhibition of serotonin uptake at SERT in rat brain synaptosome
endpoint.name: log10 IC50 (log10 of the value in nM)
Please be aware that the numbers have been log10-transformed from IC50 in nM.

>  <compound>
c1ccc2sc(C34CNCC3C4)cc2c1 (configuration not stated)

>  <measurement.target>
Sodium-dependent serotonin transporter (Rattus norvegicus)

>  <log10 IC50>
1.85

$$$$
>  <compound>
c1cc2c(cc1[C@@]13CNC[C@@H]1C3)CCO2

>  <measurement.target>
Sodium-dependent serotonin transporter (Rattus norvegicus)

>  <log10 IC50>
2.79

$$$$
>  <compound>
c1ccc2cc(C34CNCC3C4)ccc2c1 (configuration not stated)

>  <measurement.target>
Sodium-dependent serotonin transporter (Rattus norvegicus)

>  <log10 IC50>
1.70

$$$$
>  <compound>
C[C@H]1[C@H]2CNC[C@]21c1ccc(Cl)c(Cl)c1 (relative stereo)

>  <measurement.target>
Sodium-dependent serotonin transporter (Rattus norvegicus)

>  <log10 IC50>
2.30

$$$$
>  <compound>
Clc1ccc([C@@]23CNC[C@@H]2C3)s1

>  <measurement.target>
Sodium-dependent serotonin transporter (Rattus norvegicus)

>  <log10 IC50>
3.11

$$$$

Attention now shifts to the item below.
q: Please give the documented log10 IC50 of Clc1ccc([C@@]23CNC[C@@H]2[C@H]3c2ccccc2)cc1Cl (relative stereo)
a: 2.54

---

# measurement.target: Transporter (Rattus norvegicus, UniProt Q63380)
# Sequence (Q63380 whole entry): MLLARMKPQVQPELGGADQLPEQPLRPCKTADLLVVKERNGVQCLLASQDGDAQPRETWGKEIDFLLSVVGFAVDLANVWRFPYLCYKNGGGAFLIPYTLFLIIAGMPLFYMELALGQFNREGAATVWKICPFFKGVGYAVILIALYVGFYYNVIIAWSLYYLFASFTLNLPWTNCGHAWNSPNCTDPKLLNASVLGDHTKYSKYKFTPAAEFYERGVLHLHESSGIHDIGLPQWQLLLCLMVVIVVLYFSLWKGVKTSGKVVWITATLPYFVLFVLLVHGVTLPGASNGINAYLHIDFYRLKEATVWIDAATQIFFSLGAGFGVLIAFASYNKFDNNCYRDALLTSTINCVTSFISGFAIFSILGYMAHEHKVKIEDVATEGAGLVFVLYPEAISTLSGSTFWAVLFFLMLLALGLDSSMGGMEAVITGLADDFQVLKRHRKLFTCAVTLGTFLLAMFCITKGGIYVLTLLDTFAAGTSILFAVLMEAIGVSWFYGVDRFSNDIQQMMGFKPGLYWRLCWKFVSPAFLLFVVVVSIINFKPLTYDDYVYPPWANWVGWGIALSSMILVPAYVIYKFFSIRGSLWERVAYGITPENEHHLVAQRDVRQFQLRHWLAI
# protocol: Inhibition of norepinephrine uptake at NET in rat brain synaptosome
endpoint.name: pIC50
pIC50 is defined as minus the log10 of a concentration measured in mol/L.

Worked cases, pIC50 given:
>  <molecule>
c1csc(C23CNCC2C3)c1 (centres undefined)

>  <measurement.target>
Transporter (Rattus norvegicus, UniProt Q63380)

>  <pIC50>
6.89

$$$$
>  <molecule>
CC1(C)C2CNCC21c1ccccc1 (centres undefined)

>  <measurement.target>
Transporter (Rattus norvegicus, UniProt Q63380)

>  <pIC50>
5.14

$$$$
>  <molecule>
c1ccc(-c2ccc(C34CNCC3C4)cc2)cc1 (centres undefined)

>  <measurement.target>
Transporter (Rattus norvegicus, UniProt Q63380)

>  <pIC50>
6.44

$$$$
>  <molecule>
c1ccc2cc(C34CNCC3C4)ccc2c1 (centres undefined)

>  <measurement.target>
Transporter (Rattus norvegicus, UniProt Q63380)

>  <pIC50>
7.44

$$$$
>  <molecule>
Brc1ccc(C23CNCC2C3)s1 (centres undefined)

>  <measurement.target>
Transporter (Rattus norvegicus, UniProt Q63380)

>  <pIC50>
6.72

$$$$

Attention now shifts to the item below.
q: Please give the documented pIC50 of "c1cc([C@@]23CNC[C@@H]2C3)cs1"
a: 6.52

---

Listed here are compounds together with their documented pIC50.
# measurement.target: Transporter (Rattus norvegicus)
# protocol: Inhibition of norepinephrine uptake at NET in rat brain synaptosome
pIC50 is defined as minus the log10 of a concentration measured in mol/L.

Worked cases, pIC50 given:
>  <compound>
c1ccc2sc(C34CNCC3C4)cc2c1 (stereo unspecified)

>  <measurement.target>
Transporter (Rattus norvegicus)

>  <pIC50>
7.28

$$$$
>  <compound>
c1csc([C@]23CNC[C@H]2C3)c1

>  <measurement.target>
Transporter (Rattus norvegicus)

>  <pIC50>
7.04

$$$$
>  <compound>
C[C@H]1NC[C@@H]2C[C@@]21c1cccs1 (relative stereo)

>  <measurement.target>
Transporter (Rattus norvegicus)

>  <pIC50>
6.82

$$$$
>  <compound>
FC12CNCC1(c1ccccc1)C2 (stereo unspecified)

>  <measurement.target>
Transporter (Rattus norvegicus)

>  <pIC50>
5.74

$$$$
>  <compound>
C[C@H]1[C@H]2CNC[C@]21c1ccc(Cl)c(Cl)c1 (relative stereo)

>  <measurement.target>
Transporter (Rattus norvegicus)

>  <pIC50>
6.30

$$$$
>  <compound>
FC(F)(F)c1ccc(C23CNCC2C3)s1 (stereo unspecified)

>  <measurement.target>
Transporter (Rattus norvegicus)

>  <pIC50>
5.51

$$$$
>  <compound>
c1cc2c(cc1C13CNCC1C3)OCO2 (stereo unspecified)

>  <measurement.target>
Transporter (Rattus norvegicus)

>  <pIC50>
5.46

$$$$
>  <compound>
Brc1ccc([C@@]23CNC[C@@H]2C3)s1

>  <measurement.target>
Transporter (Rattus norvegicus)

>  <pIC50>
6.47

$$$$
>  <compound>
Fc1ccc([C@]23CNC[C@H]2C3)s1

>  <measurement.target>
Transporter (Rattus norvegicus)

>  <pIC50>
6.33

$$$$
>  <compound>
C[C@@H]1[C@H]2CNC[C@@]12c1ccc(Cl)c(Cl)c1 (relative stereo)

>  <measurement.target>
Transporter (Rattus norvegicus)

>  <pIC50>
7.54

$$$$

q: Please give the documented pIC50 of "c1ccc([C@@H]2[C@H]3CNC[C@]32c2ccccc2)cc1"
a: 6.92

q: Please give the documented pIC50 of C[C@@H]1NC[C@@]2(c3cccs3)C[C@@H]12 (relative stereo)
a: 6.25

q: Please give the documented pIC50 of Cc1csc(C23CNCC2C3)c1 (stereo unspecified)
a: 5.17

q: Please give the documented pIC50 of "c1cc2c(cc1[C@@]13CNC[C@@H]1C3)CCC2"
a: 5.70

q: Please give the documented pIC50 of "Clc1ccc([C@]23CNC[C@H]2C3)s1"
a: 7.11

q: Please give the documented pIC50 of c1ccc2oc(C34CNCC3C4)cc2c1 (stereo unspecified)
a: 7.32

q: Please give the documented pIC50 of C[C@H]1NC[C@@]2(c3cccs3)C[C@@H]12 (relative stereo)
a: 6.49

q: Please give the documented pIC50 of "Clc1ccc([C@@]23CNC[C@@H]2C3)s1"
a: 6.23

q: Please give the documented pIC50 of Clc1ccc(C23CNCC2C3)s1 (stereo unspecified)
a: 6.89

q: Please give the documented pIC50 of "c1cc2c(cc1[C@@]13CNC[C@@H]1C3)CCO2"
a: 5.32

q: Please give the documented pIC50 of "c1csc([C@@]23CNC[C@@H]2C3)c1"
a: 6.82

q: Please give the documented pIC50 of CN1CC2CC2(c2cccs2)C1 (stereo unspecified)
a: 5.80

q: Please give the documented pIC50 of Clc1ccc([C@@]23CNC[C@@H]2[C@H]3c2ccccc2)cc1Cl (relative stereo)
a: 7.47

q: Please give the documented pIC50 of c1ccc(C23CNCC2C3)cc1 (stereo unspecified)
a: 6.46

q: Please give the documented pIC50 of c1ccc2c(C34CNCC3C4)csc2c1 (stereo unspecified)
a: 6.66
